System: 786-0
experiment_summary: NCI tumour cell line growth inhibition, 48 h
Active and inactive are the calls of the source. Rule as the data show it: active = GI50 up to about 1.1 µM and inactive = higher.
Reported GI50 values are given for each entry in this list.

// solved cases for GI50 follow
O=c1c(O)c(-c2ccccc2)n(O)c2ccc(Cl)cc12: 28.7 µM (inactive)
O=[N+]([O-])c1ccc(Cl)c(C2SCc3nc4ccccc4n32)c1 (stereo not given): 72.3 µM (inactive)
C=CCN1C(=O)/C(=C/c2ccc(OC)cc2)NC1=S: > 100 µM (inactive)
Cc1cn(C2OC(CO[Si](C)(C)C(C)(C)C)C(N(C)O[Si](C)(C)C(C)(C)C)C2[Se]c2ccccc2)c(=O)[nH]c1=O (stereo not given): 2.89 µM (inactive)

Now turn to the next compound.
Find the recorded GI50 belonging to O=C1c2ccccc2C(=O)N1n1c(Cc2ccc([N+](=O)[O-])cc2)n[nH]c1=O and report it.
> 100 µM (inactive)

----------
This listing pairs molecules with measured GI50.
System: NCI-H522
experiment_summary: NCI tumour cell line growth inhibition, 48 h
The source made the active and inactive calls. No stated cut-off is given here; in the data, active = GI50 up to about 1.1 µM and inactive = higher.

COc1ccc(Cc2nc3ccccc3s2)cc1OC: 17.8 µM (inactive)
Cc1nc2cccc(F)c2c(=O)n1C1CCCCNC1=O (configuration not stated): > 10 µM (inactive)
O=c1[nH]cc(C(F)(C(F)(F)F)C(F)(F)F)c(=O)[nH]1: > 100 µM (inactive)
COc1cccc(CC(C)N)c1 (configuration not stated): > 100 µM (inactive)
Cn1c(=O)n(C2(C)CSC2)c2ccccc21: > 100 µM (inactive)

What GI50 value was documented for this molecule, COc1cc(C2C(Cl)C(=O)N2NC(=O)c2ccc(N)cc2)ccc1O (configuration not stated) ?
19.8 µM (inactive)

Name the reported GI50 value associated with the molecule CN1C(=O)C(=O)N2c3ccc(Cl)cc3C3(c4ccccc4)N=CC12O3 (configuration not stated)
2.4 µM (inactive)

----------
Tested on: Malme-3M
experiment_summary: NCI tumour cell line growth inhibition, 48 h
Calls of active or inactive are those of the source. Rule as the data show it: active = GI50 up to about 1.1 µM and inactive = higher.
// one of t = active, f = inactive, no free text

O=C(/C=C/c1ccc(Cl)cc1)c1ccccc(=O)c1O: f

Lab log entry: O=C(/C=C/c1c[nH]c2ccccc12)c1ccccc1O — outcome as called in the assay?
f

Identify the outcome logged in this assay for the compound shown: O=C(O)c1cc2ccccc2oc1=O
f

Which outcome was entered for the compound O=P(CCOc1ccccc1OCCP(=O)(c1ccccc1)c1ccc2c(c1)OCCOCCOCCOCCO2)(c1ccccc1)c1ccc2c(c1)OCCOCCOCCOCCO2 (centres undefined) in this test?
f

Test call for this compound, please: CCCCCCCCCCCCCCCC(=O)OCCOCCOCCOCCOCCOC(=O)CCCCCCCCCCCCCCC
f

Short answer needed: outcome of this test for O=C1Nc2c(Cl)cc(Cl)cc2C1=O ?
f

Write down the call the test reported for this compound. Item: CN(C)c1ccc(/C=N/C23CC4CC(CC(C4)C2)C3)cc1
f

So what was the verdict on Cc1ccc(N2C(=O)/C(=C/c3ccc(N(CCC#N)CCC#N)cc3C)N=C2c2cc([N+](=O)[O-])ccc2Cl)cc1 in this test?
f

// param item: CC1=CC(=O)[C@@H](O)[C@]2(C)[C@H]3[C@@]4(O)OC[C@]35[C@H]([C@@H](C)[C@H]4O)[C@@H](OC(=O)C(C)(C)CO)C(=O)O[C@@H]5C[C@@H]12 ; yields the recorded call
t

For O=C(/C=C/c1ccc(Cl)cc1)Oc1ccc(/C=C2\CCCCC2=O)cc1 , which call appears in the assay record?
f

Please state the recorded outcome for this compound: CSC1=NC(C(N)=O)C(N)N1C (centres undefined)
f

Record lookup: outcome of this test for CCNC(C)(C)C(SS)c1ccc(Br)cc1 (centres undefined) ?
f

Kindly provide the recorded test outcome for the following compound: Cc1cccc(Nc2nn3c(=O)c4c5c(sc4nc3s2)CCCC5)c1
f

Would you mind telling me which call this test gave COc1cc(C2C(Cl)C(=O)N2NC(=O)c2ccc(N)cc2)ccc1O (centres undefined) ?
f

Could you kindly confirm the outcome this assay logged for CCc1c(OC(C)=O)c2c(NC3OC(COC(C)=O)C(OC(C)=O)C(OC(C)=O)C3OC(C)=O)nc(SC)nc2oc1=O (centres undefined) ?
f

How did this test come out for N#C[BH2-][n+]1cn(C2CC(O)C(COP(=O)(O)OC3CC(n4cnc5c(N)ncnc54)OC3CO)O2)c2nc(N)[nH]c(=O)c21 (centres undefined) ?
f

Dear all, I need the recorded test outcome for c1ccc(C2CC(N3CCOCC3)=Nc3ccccc3N2)cc1 (centres undefined) , thank you.
f

// param item: CC#CC(O)(C(=O)OC1CC(C)N(C)C(C)(C)C1)C1CCCC1 (centres undefined) ; yields the recorded call
f

For NS(=O)(=O)c1cc(Cl)c(NC(=S)NC(=O)Nc2ccc(Cl)c(Cl)c2)c(Cl)c1 , which call appears in the assay record?
f

Source listed as ChEMBL document CHEMBL1201862.
